EXPERIMENTAL_SYSTEM: NR1/NR2D (Homo sapiens, UniProt O15399+Q05586)
Sequence (O15399 28-1336, species assumed, other chains not shown): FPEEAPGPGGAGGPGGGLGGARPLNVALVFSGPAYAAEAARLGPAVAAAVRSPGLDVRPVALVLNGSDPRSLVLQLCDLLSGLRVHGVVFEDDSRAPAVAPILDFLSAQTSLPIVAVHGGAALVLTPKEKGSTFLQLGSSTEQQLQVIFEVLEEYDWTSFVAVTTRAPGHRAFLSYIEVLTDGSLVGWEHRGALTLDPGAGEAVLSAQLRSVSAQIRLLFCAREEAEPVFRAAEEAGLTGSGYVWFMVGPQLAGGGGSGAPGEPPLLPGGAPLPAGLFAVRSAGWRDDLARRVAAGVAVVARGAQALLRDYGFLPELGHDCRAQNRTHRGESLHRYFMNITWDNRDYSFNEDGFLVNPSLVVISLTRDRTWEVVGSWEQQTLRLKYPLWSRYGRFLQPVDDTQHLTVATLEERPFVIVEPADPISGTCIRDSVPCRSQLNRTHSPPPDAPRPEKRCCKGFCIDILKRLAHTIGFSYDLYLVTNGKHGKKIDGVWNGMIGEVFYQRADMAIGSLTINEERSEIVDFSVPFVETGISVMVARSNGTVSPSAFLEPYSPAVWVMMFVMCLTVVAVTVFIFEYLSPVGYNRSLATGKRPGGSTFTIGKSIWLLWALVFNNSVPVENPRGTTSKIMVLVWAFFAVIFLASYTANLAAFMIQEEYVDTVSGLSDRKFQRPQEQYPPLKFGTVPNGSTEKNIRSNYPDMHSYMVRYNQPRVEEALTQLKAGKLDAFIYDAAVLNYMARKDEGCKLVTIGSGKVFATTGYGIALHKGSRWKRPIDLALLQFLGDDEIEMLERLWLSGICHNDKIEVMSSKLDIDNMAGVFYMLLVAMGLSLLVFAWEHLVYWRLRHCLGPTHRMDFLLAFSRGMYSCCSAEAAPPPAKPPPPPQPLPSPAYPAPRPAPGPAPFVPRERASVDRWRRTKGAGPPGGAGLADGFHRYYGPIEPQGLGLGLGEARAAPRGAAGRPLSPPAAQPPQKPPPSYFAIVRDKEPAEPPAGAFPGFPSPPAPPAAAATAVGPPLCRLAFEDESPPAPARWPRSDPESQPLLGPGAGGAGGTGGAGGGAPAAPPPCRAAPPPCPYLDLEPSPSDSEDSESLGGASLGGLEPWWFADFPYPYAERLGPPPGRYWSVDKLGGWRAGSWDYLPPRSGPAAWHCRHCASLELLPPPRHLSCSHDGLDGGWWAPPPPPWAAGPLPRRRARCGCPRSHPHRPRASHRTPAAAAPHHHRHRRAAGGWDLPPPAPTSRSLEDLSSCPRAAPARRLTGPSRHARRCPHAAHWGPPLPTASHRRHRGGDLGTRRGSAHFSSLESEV
ASSAY_TEXT: Two electrode voltage clamp, Xenopus laevis oocytes expressing NR1/NR2D
CONDITION_SUMMARY: read-out: 2D percent effect at the maximum tested concentration, at 100 μM
MEASUREMENT_NAME: activity at 100 µM (%)
Respond with the bare value in %.

// known answers, use as guide
activity at 100 µM in this record for COc1ccc(OCC2c3cc(OC)c(OC)cc3CCN2C(=O)c2ccco2)cc1 (stereo not shown) [1180-4] : 89

activity at 100 µM in this record for COc1ccc(OCC2c3cc(OC)c(OC)cc3CCN2Cc2ccccc2)cc1 (stereo not shown) [1180-17] : 83

activity at 100 µM in this record for COc1ccc(OCC2c3cc(OC)c(OC)cc3CCN2C(=O)c2ccc(OC)cc2)cc1 (stereo not shown) [compound 1364] : 93

activity at 100 µM in this record for CSC1=NCCN1C(=O)c1ccc2ccccc2c1 [compound 1402] : 93

activity at 100 µM in this record for COc1ccc(OCC2c3cc(OC)c(OC)cc3CCN2C(=S)Nc2cccc(C)c2)cc1 (stereo not shown) [compound 1413] : 74

activity at 100 µM in this record for Cc1ccnc(NC(=O)c2ccc(C(C)(C)C)cc2)c1 [compound 1398] : 76

Further cases:
activity at 100 µM in this record for COc1cc2c(cc1OC)C(COc1ccc(SC)cc1)N(C(=O)c1cccc(Cl)c1)CC2 (stereo not shown) [1180-13] : 105

activity at 100 µM in this record for COc1ccc(OCC2c3cc(OC)c(OC)cc3CCN2C(=O)c2ccc3c(c2)OCO3)cc1 (stereo not shown) [compound 1408] : 88

activity at 100 µM in this record for COc1ccc(OCC2c3cc(OC)c(OC)cc3CCN2C(=O)c2cccc(O)c2)cc1 (stereo not shown) [1180-3] : 79

activity at 100 µM in this record for CSC1=NCCN1C(=O)c1ccc(C)cc1 [compound 1344] : 97

activity at 100 µM in this record for COc1ccc(OCC2c3cc(OC)c(OC)cc3CCN2C(=O)c2ccccc2Cl)cc1 (stereo not shown) [compound 1409] : 82

activity at 100 µM in this record for COc1cc2c(cc1OC)C(COc1ccc(F)cc1)N(C(=O)c1cccc(F)c1)CC2 (stereo not shown) [compound 1394] : 68

activity at 100 µM in this record for COc1ccc(OCC2c3cc(OC)c(OC)cc3CCN2C(=O)CN2CCOCC2)cc1 (stereo not shown) [1180-24] : 83

---

EXPERIMENTAL_SYSTEM: NR1/NR2A (Homo sapiens, UniProt Q12879)
Construct: expressed in transfected cells; host or cells: Xenopus laevis oocytes
Sequence (Q12879 23-1464, species assumed, other chains not shown): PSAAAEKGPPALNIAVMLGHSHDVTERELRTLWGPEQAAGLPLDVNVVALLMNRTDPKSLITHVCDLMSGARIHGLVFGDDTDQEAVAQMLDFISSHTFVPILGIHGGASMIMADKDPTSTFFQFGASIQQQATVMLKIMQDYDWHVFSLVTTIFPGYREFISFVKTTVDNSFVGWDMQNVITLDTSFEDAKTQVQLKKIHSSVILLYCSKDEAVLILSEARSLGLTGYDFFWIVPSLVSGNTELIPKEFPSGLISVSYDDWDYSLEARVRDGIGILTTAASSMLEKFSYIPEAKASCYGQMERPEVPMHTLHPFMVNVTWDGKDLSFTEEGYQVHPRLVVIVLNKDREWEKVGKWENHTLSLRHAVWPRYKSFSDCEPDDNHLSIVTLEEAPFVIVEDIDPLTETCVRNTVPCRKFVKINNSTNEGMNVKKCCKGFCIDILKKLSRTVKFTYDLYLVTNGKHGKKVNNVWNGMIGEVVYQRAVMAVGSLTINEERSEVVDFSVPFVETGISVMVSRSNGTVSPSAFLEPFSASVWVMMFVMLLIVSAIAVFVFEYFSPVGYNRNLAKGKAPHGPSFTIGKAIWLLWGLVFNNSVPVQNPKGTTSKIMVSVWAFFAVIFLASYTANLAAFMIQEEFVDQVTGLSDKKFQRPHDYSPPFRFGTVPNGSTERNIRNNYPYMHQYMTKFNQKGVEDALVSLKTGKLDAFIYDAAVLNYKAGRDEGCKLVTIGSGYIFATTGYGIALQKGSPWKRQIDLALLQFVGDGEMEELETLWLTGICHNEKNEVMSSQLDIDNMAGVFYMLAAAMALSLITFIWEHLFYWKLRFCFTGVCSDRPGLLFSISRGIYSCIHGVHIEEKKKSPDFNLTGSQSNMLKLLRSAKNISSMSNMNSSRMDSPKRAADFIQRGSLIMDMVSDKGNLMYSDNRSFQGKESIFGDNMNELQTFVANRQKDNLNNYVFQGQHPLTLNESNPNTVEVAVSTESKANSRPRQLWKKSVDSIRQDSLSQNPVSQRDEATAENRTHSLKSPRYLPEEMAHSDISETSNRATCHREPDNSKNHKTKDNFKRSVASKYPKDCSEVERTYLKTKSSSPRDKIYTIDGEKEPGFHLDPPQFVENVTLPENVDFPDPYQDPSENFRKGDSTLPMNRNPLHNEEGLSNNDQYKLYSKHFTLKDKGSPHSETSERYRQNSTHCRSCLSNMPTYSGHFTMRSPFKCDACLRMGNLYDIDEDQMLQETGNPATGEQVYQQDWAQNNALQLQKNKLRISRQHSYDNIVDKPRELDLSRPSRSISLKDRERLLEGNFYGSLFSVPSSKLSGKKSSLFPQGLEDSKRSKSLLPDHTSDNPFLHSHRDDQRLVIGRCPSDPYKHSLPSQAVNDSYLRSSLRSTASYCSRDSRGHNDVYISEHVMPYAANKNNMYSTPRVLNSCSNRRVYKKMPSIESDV
ASSAY_TEXT: Two electrode voltage clamp, Xenopus laevis oocytes expressing NR1/NR2A
Format: cell-based
CONDITION_SUMMARY: at 100 μM; read-out: 2A percent effect at the maximum tested concentration
MEASUREMENT_NAME: activity at 100 µM
Answer format reminder: number followed by unit.

The value of activity at 100 µM recorded for Cc1sc(NC(=O)c2ccc(C(C)(C)C)cc2)c(C(N)=O)c1C when tested on NR1/NR2A (Homo sapiens, UniProt Q12879) reads 97%

The value of activity at 100 µM recorded for COc1ccc(OCC2c3cc(OC)c(OC)cc3CCN2C(=O)c2ccc(Br)cc2)cc1 (centres unmarked) when tested on NR1/NR2A (Homo sapiens, UniProt Q12879) reads 120%

The value of activity at 100 µM recorded for COc1ccc(OCC2c3cc(OC)c(OC)cc3CCN2C(=O)c2ccc([N+](=O)[O-])cc2)cc1 (centres unmarked) when tested on NR1/NR2A (Homo sapiens, UniProt Q12879) reads 77%

The value of activity at 100 µM recorded for COc1ccc(OCC2c3cc(OC)c(OC)cc3CCN2S(=O)(=O)c2ccccc2)cc1 (centres unmarked) when tested on NR1/NR2A (Homo sapiens, UniProt Q12879) reads 89%

The value of activity at 100 µM recorded for COc1ccc(OCC2c3cc(OC)c(OC)cc3CCN2C(=O)c2ccccn2)cc1 (centres unmarked) when tested on NR1/NR2A (Homo sapiens, UniProt Q12879) reads 100%

Further cases:
The value of activity at 100 µM recorded for CC1CCc2c(sc(NC(=O)c3ccc(C(C)(C)C)cc3)c2C(=O)O)C1 (centres unmarked) when tested on NR1/NR2A (Homo sapiens, UniProt Q12879) reads 113%

The value of activity at 100 µM recorded for COc1ccc(OCC2c3c(cc(OC)cc3OC)CCN2C(=O)c2cccc(Br)c2)cc1 (centres unmarked) when tested on NR1/NR2A (Homo sapiens, UniProt Q12879) reads 92%

The value of activity at 100 µM recorded for COc1ccc(OCC2c3cc(OC)c(OC)cc3CCN2C(=O)c2ccc(F)c(Cl)c2)cc1 (centres unmarked) when tested on NR1/NR2A (Homo sapiens, UniProt Q12879) reads 136%

The value of activity at 100 µM recorded for COc1cc2c(cc1OC)C(COc1ccc(SC)cc1)N(C(=O)c1ccccc1)CC2 (centres unmarked) when tested on NR1/NR2A (Homo sapiens, UniProt Q12879) reads 115%

The value of activity at 100 µM recorded for Cc1cc(C(=O)O)c(NC(=O)c2ccc(C(C)(C)C)cc2)s1 when tested on NR1/NR2A (Homo sapiens, UniProt Q12879) reads 102%

The value of activity at 100 µM recorded for COc1ccc(OCC2c3cc(OC)c(OC)cc3CCN2C(=O)c2cccc(Cl)c2)cc1 (centres unmarked) when tested on NR1/NR2A (Homo sapiens, UniProt Q12879) reads 115%

The value of activity at 100 µM recorded for CCc1cc(C(=O)O)c(NC(=O)c2ccc(C(C)(C)C)cc2)s1 when tested on NR1/NR2A (Homo sapiens, UniProt Q12879) reads 106%

The value of activity at 100 µM recorded for COc1ccc(OCC2c3cc(OC)c(OC)cc3CCN2C(=O)c2cccnc2)cc1 (centres unmarked) when tested on NR1/NR2A (Homo sapiens, UniProt Q12879) reads 75%

The value of activity at 100 µM recorded for Cc1cc(NC(=O)c2ccc(C(C)(C)C)cc2)no1 when tested on NR1/NR2A (Homo sapiens, UniProt Q12879) reads 105%
